The values you see were collected from the supplement of paper PMC10567573.

Can you tell me protein stability index for the items I'm about to list?
B1: INTS4 (parent)
chain: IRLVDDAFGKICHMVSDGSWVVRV

Variants of: B1
Test Method Notes: protein stability index of a GFP-peptide fusion (GPS, HEK-293T) (PSI 1-6); higher = more stable;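 further: lentivirally expressed fusions sorted by FACS into six bins by GFP to DsRed ratio, PSI derived from sequencing read proportions per bin multiplied by bin number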
Measurement Conditions: c terminus: a fixed tail appended
Answer with a number only.

Memo: H13G , reported protein stability index: 2.97

Memo: C12T , reported protein stability index: 2.91

Memo: R23F , reported protein stability index: 3
